Molecular target: hemagglutinin (HA) of influenza A/Japan/305/57 H2N2 (Influenza A virus A/Japan/305/1957 …, UniProt P03451 16-562)
Assay: ELISA, inactivated whole virions coated; transfection supernatant set 2
I would appreciate it if you labelled entries 1 when OD450 is 0.8 OD450 or higher, otherwise -1.

binder	category
TCN-563 (5237_B21) (antibody, V domains shown) VH: QVQLAQSGAEVKRPGSSVKVSCTASGGIFRKNAISWVRQAPGQGLEWMGGIIAVFNTANYAQKFQGRVKITADESGNTAYMELSSLRSDDTAVYYCASHPKYFYGSGSYPDFWGQGTLVTVSS VL: QSALTQPRSVSGSPGQSVTISCTGSSSDVGASNSVSWYQQHPGKAPKLVIYDVTERPSGVPHRFSGSKSGNTASLTVSGLQPEDEADYFCCAYGGKYLVVFGGGTKVTVL	1
TCN-527 (5086_C06) (antibody, V domains shown) VH: QVQLQESGPGLVKPSETLSLNCAVSGGSISNYYWSWIRQPPGKGLEWIGYISYNGRPKYNPSLTSRVTISVDTSKDQFSLELRSVTAADTALYYCARETRFGELLSPYDAFEIWGQGTMVTVSS VL: DIQMTQSPSSLSASVGDRVTMTCRASQNIRSYLNWYQQRPGTAPKLLIYAASTLHSGVPSRFSGGGSGTDFTLTINNLQPEDFASYYCQQSYDNPQTFGQGTKVEIK	1
TCN-523 (5248_A17) (antibody, V domains shown) VH: QVQLVQSGAEVKKPGSSVKVSCKASGGSFSNYAFSWVRQAPGQGLEWMGGTIPLLGTTNYAQKFQGRVTISADQFTSTAYMELGSLRSEDTAVYYCTRRKMTTAFDSWGQGTLVTVSS VL: QPVLTQPPSASASLGASVTLTCTLSSAYSNYKVDWYQQRPGKGPRFVMRVGTGGIVGSKGDGIPDRFSVLGSGLNRYLTIKNIQEEDESDYHCGADHGSGSNFVSPYVFGGGTKLTVL	1
TCN-504 (3251_K17) (antibody, V domains shown) VH: QVQLQESGPGLVKPSETLSLTCAVSGVSISNIDFYWGWIRQPPGKGLEWIGNIYYTGITFYNPSLSSRVAISIDTSKNQFSLTLTSVTAADTAMYYCARHYGDSEAINDAFDIWGQGTMLTVSS VL: EIVMTQSPATLSVSPGERATLSCRASQSVGNSLAWYQQRPGQAPRLLIYGASTRATGIPPRFSGSGSGTEFTLTISSLQTEDFAVYYCQQYINWRPLSFGGGTKVEIK	1
TCN-526 (5084_C17) (antibody, V domains shown) VH: EVLMVESGGGLVQPGGSVRLSCVASGFSFSSHWMTWVRQAPGKGLEWVANIEDDGGDKYYVDSVKGRFIISRDNAKNSVYLQMNSLRAEDTAVYFCARGSGSSDRSDYDPHYYYYLDVWGKGATVTVSS VL: DIQLTQSPSSLSASVGDRVTITCRASQSISRYLNWYQQKPGKAPKLLLFAASTLLDGVPSRFSGSGSGTDFTLTISSLQPEDFATYYCQRNHSPSWTFGQGTRVEIK	-1
TCN-528 (5087_P17) (antibody, V domains shown) VH: QVQLVQSGSEVKKPGASVKVSCKASGYTFTNYDINWIRQAPGQGLEWMGWINPNSGTTGSAQRFQGRVTITVDTSITTVYMELSSLRSDDTAIYYCARGRELLRLQHFLTDSQSERRDCFDPWGQGTLVTVSS VL: DIQMTQSPSSLSASVGDRVTITCRANQDIGIYLNWYQQNPGKVPKLLLHGASSLQGGVPSRFSASGSGTDFTLTIHSLQPEDLATYYCQQSRRLPYTFGQGTRVELK	1
TCN-522 (3212_I12) (antibody, V domains shown) VH: QVQLQQWGAGLLKPSETLSLTCTVSGGSLTDYSWNWIRQPPGKGLEWIGDTLHNGYTNYNPSLRGRVSISIDTSKNQVSLRLTSVTAADTALYYCARGSGGYGGFDYFGKLRTWDFWGQGTLVTVSS VL: DIQLTQSPSSLSASVGDRVTITCRASQGIRNDLGWYQQKPGNAPKRLIFGASSLQSGVPSRFSGSGSGTEFTLTISSLQPEDFATYYCLQHNSYPYTFGQGTKLEIK	-1
